- Tested on: MDA-MB-453
- ASSAY METHOD TEXT: Cytotoxicity against human MDA-MB-453 cells harboring FGF19/FGFR4 assessed as inhibition of cell growth
READOUT: pIC50
Answers are plain numbers, as −log10 of the molar value.

Batch of 5 compounds: report pIC50 for each.
1. COCCNc1cc(NC(=O)N2CCCc3cc(CN4CCN(C)CC4=O)c(C=O)nc32)ncc1C#N [FGF401]
2. CC(C)Oc1cc(NC(=O)N2CCCc3cc(CN4CCN(C)CC4=O)c(C=O)nc32)ncc1C#Cc1cccnc1
3. C=CC(=O)Nc1cccc(C)c1Nc1ncc2cc(-c3c(Cl)c(OC)cc(OC)c3Cl)ccc2n1
4. CC(C)Oc1cc(NC(=O)N2CCCc3cc(CN4CCN(C)CC4=O)c(C=O)nc32)ncc1C#Cc1ccccn1
5. COc1cc(C#Cc2cnc(NC(=O)N3CCCc4cc(CN5CCN(C)CC5=O)c(C=O)nc43)cc2OC(C)C)cc(OC)c1

Reply:
6.04
6.85
6.92
5.88
6.33

Task item: Which pIC50 value belongs to COc1cc(CCc2cnc(NC(=O)N3CCCc4cc(CN5CCN(C)CC5=O)c(C=O)nc43)cc2OC(C)C)cc(OC)c1 ?
Reply: 5.65

###

- ASSAY METHOD TEXT: AUC(0 to t) in Sprague-Dawley rat at 5 mg/kg, iv incubation upto 24 hrs by LC-MS/MS analysis
- Type: ADME, organism-based
- Design: route intravenous, dose 5 mg/kg, time <=24
- CONDITION DETAILS: in vivo
READOUT: AUC(0-t) at 24 h (ng·h/mL)
Numbers only, in ng·h/mL.

Task item: Which AUC(0-t) at 24 h value belongs to CC(C)Oc1cc(NC(=O)N2CCCc3cc(CN4CCN(C)CC4=O)c(C=O)nc32)ncc1C#Cc1cccnc1 ?
Reply: 15300

###

- ASSAY METHOD TEXT: Half life in Sprague- Dawley rat at 5 mg/kg, iv incubation upto 24 hrs by LC-MS/MS analysis
- Assay type: ADME, organism-based
- CONDITION DETAILS: in vivo
READOUT: half-life (min)
Answers are plain numbers, in min.

Task item: Which half-life value belongs to CC(C)Oc1cc(NC(=O)N2CCCc3cc(CN4CCN(C)CC4=O)c(C=O)nc32)ncc1C#Cc1cccnc1 ?
Reply: 53.4

###

- System: Huh-7
- ASSAY METHOD TEXT: Cytotoxicity against human Huh-7 cells harboring FGF19/FGFR4 assessed as inhibition of cell growth
pIC50: −log10 of the molar value.
Class class 1: pIC50 at least 8. Class class 0: pIC50 below 8.

Task item: Hi, just wondering whether COc1cc(C#Cc2cnc(NC(=O)N3CCCc4cc(CN5CCN(C)CC5=O)c(C=O)nc43)cc2OC(C)C)cc(OC)c1 shows pIC50 of 8 or higher.
Reply: class 0

Task item: Hi, just wondering whether CC(C)Oc1cc(NC(=O)N2CCCc3cc(CN4CCN(C)CC4=O)c(C=O)nc32)ncc1C#Cc1cccnc1 shows pIC50 of 8 or higher.
Reply: class 1

###

- ASSAY METHOD TEXT: Cmax in Sprague-Dawley rat at 25 mg/kg, po incubation upto 24 hrs by LC-MS/MS analysis
- Assay type: ADME, organism-based
- Set-up: route oral, dose 25 mg/kg, time <=24
- CONDITION DETAILS: in vivo
READOUT: Cmax (ng/mL)
One number for each entry, in ng/mL.

Task item: Which Cmax value belongs to CC(C)Oc1cc(NC(=O)N2CCCc3cc(CN4CCN(C)CC4=O)c(C=O)nc32)ncc1C#Cc1cccnc1 ?
Reply: 8560

###

- ASSAY METHOD TEXT: AUC(0 to t) inSprague- Dawley rat at 25 mg/kg, po incubation upto 24 hrs by LC-MS/MS analysis
- Format: ADME, organism-based
- Design: route oral, dose 25 mg/kg, time <=24
- CONDITION DETAILS: Sprague-Dawley, in vivo
READOUT: AUC(0-t) at 24 h (ng·h/mL)
One number for each entry, in ng·h/mL.

Task item: Which AUC(0-t) at 24 h value belongs to CC(C)Oc1cc(NC(=O)N2CCCc3cc(CN4CCN(C)CC4=O)c(C=O)nc32)ncc1C#Cc1cccnc1 ?
Reply: 39000

###

- TGT: Fibroblast growth factor receptor 4 (Homo sapiens, UniProt P22455)
- Sequence (P22455 whole entry): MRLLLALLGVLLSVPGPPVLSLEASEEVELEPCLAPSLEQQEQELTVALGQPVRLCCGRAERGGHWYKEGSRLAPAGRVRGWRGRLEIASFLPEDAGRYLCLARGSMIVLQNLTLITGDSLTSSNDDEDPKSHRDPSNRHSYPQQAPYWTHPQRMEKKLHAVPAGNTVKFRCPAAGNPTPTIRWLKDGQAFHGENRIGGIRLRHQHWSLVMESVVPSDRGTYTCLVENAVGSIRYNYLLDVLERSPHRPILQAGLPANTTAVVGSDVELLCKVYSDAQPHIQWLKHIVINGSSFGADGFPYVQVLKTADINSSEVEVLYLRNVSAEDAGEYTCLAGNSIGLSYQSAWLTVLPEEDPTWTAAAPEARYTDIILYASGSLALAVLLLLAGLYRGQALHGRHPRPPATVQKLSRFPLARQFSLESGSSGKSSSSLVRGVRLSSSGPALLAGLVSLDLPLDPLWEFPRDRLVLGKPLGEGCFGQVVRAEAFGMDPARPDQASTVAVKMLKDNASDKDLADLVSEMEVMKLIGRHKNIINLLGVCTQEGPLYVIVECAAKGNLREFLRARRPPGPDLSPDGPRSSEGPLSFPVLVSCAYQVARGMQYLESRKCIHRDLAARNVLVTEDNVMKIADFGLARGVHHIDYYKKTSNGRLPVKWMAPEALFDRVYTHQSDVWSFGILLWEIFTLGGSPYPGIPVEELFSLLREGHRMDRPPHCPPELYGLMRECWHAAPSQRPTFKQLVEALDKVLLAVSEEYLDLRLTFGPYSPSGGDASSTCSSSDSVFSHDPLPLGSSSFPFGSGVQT
READOUT: pIC50
Numbers only, as −log10 of the molar value.

Task item: Which pIC50 value belongs to CC(C)Oc1cc(NC(=O)N2CCCc3cc(CN4CCN(C)CC4=O)c(C=O)nc32)ncc1C#Cc1cccnc1 ?
Reply: 8.27

###

- ASSAY METHOD TEXT: Clearance in Sprague- Dawley rat at 5 mg/kg, iv incubation upto 24 hrs by LC-MS/MS analysis
- Format: ADME, organism-based
- CONDITION DETAILS: in vivo
READOUT: clearance (mL/min/kg)
Numbers only, in mL/min/kg.

Task item: Which clearance value belongs to CC(C)Oc1cc(NC(=O)N2CCCc3cc(CN4CCN(C)CC4=O)c(C=O)nc32)ncc1C#Cc1cccnc1 ?
Reply: 6.15

###

- ASSAY METHOD TEXT: Oral bioavailability in Sprague- Dawley rat at 25 mg/kg incubation upto 24 hrs by LC-MS/MS analysis
- Type: ADME, organism-based
- CONDITION DETAILS: in vivo
READOUT: bioavailability (%)
Give bare numbers, in %.

Task item: Which bioavailability value belongs to CC(C)Oc1cc(NC(=O)N2CCCc3cc(CN4CCN(C)CC4=O)c(C=O)nc32)ncc1C#Cc1cccnc1 ?
Reply: 51

###

For each of the compounds below, state its pIC50.
- System: Hep 3B2
- ASSAY METHOD TEXT: Cytotoxicity against human Hep 3B2.1-7 cells harboring FGF19/FGFR4 assessed as inhibition of cell growth
- CONDITION DETAILS: Hep3B
Numbers only, as −log10 of the molar value.

COMPOUND	pIC50
CC(C)Oc1cc(NC(=O)N2CCCc3cc(CN4CCN(C)CC4=O)c(C=O)nc32)ncc1C#Cc1ccccn1	6.18
COc1cc(CCc2cnc(NC(=O)N3CCCc4cc(CN5CCN(C)CC5=O)c(C=O)nc43)cc2OC(C)C)cc(OC)c1	5.84
COc1cc(C#Cc2cnc(NC(=O)N3CCCc4cc(CN5CCN(C)CC5=O)c(C=O)nc43)cc2OC(C)C)cc(OC)c1	5.87
CC(C)Oc1cc(NC(=O)N2CCCc3cc(CN4CCN(C)CC4=O)c(C=O)nc32)ncc1C#Cc1cccnc1	6.98

Batch of 2 compounds: report pIC50 for each.
1. C=CC(=O)Nc1cccc(C)c1Nc1ncc2cc(-c3c(Cl)c(OC)cc(OC)c3Cl)ccc2n1
2. COCCNc1cc(NC(=O)N2CCCc3cc(CN4CCN(C)CC4=O)c(C=O)nc32)ncc1C#N [FGF401]

Reply:
1. 6.26
2. 6.68

###

- ASSAY METHOD TEXT: Cmax in Sprague-Dawley rat at 5 mg/kg, iv incubation upto 24 hrs by LC-MS/MS analysis
- Assay type: ADME, organism-based
- Design: route intravenous, dose 5 mg/kg, time <=24
- CONDITION DETAILS: in vivo
READOUT: Cmax (ng/mL)
Numbers only, in ng/mL.

Task item: Which Cmax value belongs to CC(C)Oc1cc(NC(=O)N2CCCc3cc(CN4CCN(C)CC4=O)c(C=O)nc32)ncc1C#Cc1cccnc1 ?
Reply: 11100

###

- Test system: Huh-7
- ASSAY METHOD TEXT: Cytotoxicity against human Huh-7 cells harboring FGF19/FGFR4 assessed as inhibition of cell growth
For each of the molecules below, state its IC50.
Give bare numbers, in nM.

Consider the following illustrative entries.
MOLECULE	UNITS TEXT	RESULT VALUE
COc1cc(CCc2cnc(NC(=O)N3CCCc4cc(CN5CCN(C)CC5=O)c(C=O)nc43)cc2OC(C)C)cc(OC)c1	nM	14.9
CC(C)Oc1cc(NC(=O)N2CCCc3cc(CN4CCN(C)CC4=O)c(C=O)nc32)ncc1C#Cc1ccccn1	nM	6.24

Kindly consider the entry below.
Task item: Which IC50 value belongs to COCCNc1cc(NC(=O)N2CCCc3cc(CN4CCN(C)CC4=O)c(C=O)nc32)ncc1C#N [FGF401] ?
Reply: 8.9
